Hi there, I'd appreciate the recorded shrunken log2 fold change for every entry that follows.
System: Escherichia coli TOP10
Assay: shrunken log2 fold change of peptide-encoding DNA abundance (4.5 h post-induction vs induction); higher = less antimicrobial activity (less host growth inhibition)
Details: time post-induction: 4.5 h; library: site-saturation at positions 5, 18, 19, 20
Answers are plain numbers.

Recorded results for 6 sequences are shown here.
SEQUENCE DATA: RRIRVRPPRLPRPRPRPLIDPRP
shrunken log2 fold change: 0.119

SEQUENCE DATA: RRIRIRPPRLPRPRPRPHHGPRP
shrunken log2 fold change: -0.0784

SEQUENCE DATA: RRIRIRPPRLPRPRPRPKKIPRP
shrunken log2 fold change: -0.526

SEQUENCE DATA: RRIRWRPPRLPRPRPRPYKVPRP
shrunken log2 fold change: -0.482

SEQUENCE DATA: RRIRYRPPRLPRPRPRPRAIPRP
shrunken log2 fold change: -0.36

SEQUENCE DATA: RRIRDRPPRLPRPRPRPKKLPRP
shrunken log2 fold change: -0.0595

State the recorded shrunken log2 fold change for every item in the following list.
1. RRIRVRPPRLPRPRPRPYRHPRP
2. RRIRNRPPRLPRPRPRPRAEPRP
3. RRIRMRPPRLPRPRPRPDTDPRP
4. RRIRERPPRLPRPRPRPHSQPRP
5. RRIRCRPPRLPRPRPRPANPPRP

OUT:
1. -1.08
2. 0.103
3. 0.0472
4. 0.061
5. -0.057

State the recorded shrunken log2 fold change for every item in the following list.
1. RRIRLRPPRLPRPRPRPTPSPRP
2. RRIRHRPPRLPRPRPRPLHKPRP
3. RRIRLRPPRLPRPRPRPHHAPRP
4. RRIRQRPPRLPRPRPRPDQRPRP
5. RRIRNRPPRLPRPRPRPHIRPRP
6. RRIRNRPPRLPRPRPRPPQTPRP
7. RRIRCRPPRLPRPRPRPGVMPRP

OUT:
[0.552, -0.294, -0.058, -0.00141, -0.0139, 0.424, 0.0691]

State the recorded shrunken log2 fold change for every item in the following list.
1. RRIRVRPPRLPRPRPRPLGHPRP
2. RRIRPRPPRLPRPRPRPIMMPRP
3. RRIRYRPPRLPRPRPRPRYVPRP
4. RRIRDRPPRLPRPRPRPNPRPRP
5. RRIRERPPRLPRPRPRPSWLPRP

OUT:
[0.0376, -0.199, -0.0777, 0.0975, 0.177]

State the recorded shrunken log2 fold change for every item in the following list.
1. RRIRYRPPRLPRPRPRPWLKPRP
2. RRIRNRPPRLPRPRPRPPLKPRP
3. RRIRCRPPRLPRPRPRPMCAPRP
4. RRIRYRPPRLPRPRPRPHKCPRP
5. RRIRPRPPRLPRPRPRPFPKPRP
6. RRIRKRPPRLPRPRPRPNQWPRP
7. RRIRWRPPRLPRPRPRPQEGPRP
8. RRIRSRPPRLPRPRPRPTPSPRP

OUT:
1. -0.0198
2. 0.0326
3. 0.0886
4. -0.259
5. 0.166
6. 0.274
7. -0.00127
8. 0.376

IN: Form field: reported shrunken log2 fold change of `RRIRYRPPRLPRPRPRPEPLPRP`
OUT: 0.0319

###

Hi there, I'd appreciate the recorded shrunken log2 fold change for every entry that follows.
Tested on: Escherichia coli TOP10
Assay: shrunken log2 fold change of peptide-encoding DNA abundance (4.5 h post-induction vs induction); higher = less antimicrobial activity (less host growth inhibition)
Conditions: time post-induction: 4.5 h; library: site-saturation at positions 5, 18, 19, 20
Give bare numbers.

Recorded results for 7 sequences are shown here.
SEQUENCE DATA: RRIRMRPPRLPRPRPRPDQEPRP
VALUE: 0.0392

SEQUENCE DATA: RRIRTRPPRLPRPRPRPIRGPRP
VALUE: 0.074

SEQUENCE DATA: RRIRPRPPRLPRPRPRPFVQPRP
VALUE: -0.0832

SEQUENCE DATA: RRIRCRPPRLPRPRPRPHAVPRP
VALUE: -0.559

SEQUENCE DATA: RRIRKRPPRLPRPRPRPSDRPRP
VALUE: 0.0691

SEQUENCE DATA: RRIRQRPPRLPRPRPRPEVRPRP
VALUE: 0.0665

SEQUENCE DATA: RRIRNRPPRLPRPRPRPYKSPRP
VALUE: -0.00822

IN: Form field: reported shrunken log2 fold change of `RRIRIRPPRLPRPRPRPKLSPRP`
OUT: 0.144

###

System: Escherichia coli TOP10
Assay: shrunken log2 fold change of peptide-encoding DNA abundance (4.5 h post-induction vs induction); higher = less antimicrobial activity (less host growth inhibition)
Conditions: time post-induction: 4.5 h; library: site-saturation at positions 5, 18, 19, 20
ENDPOINT LABEL: shrunken log2 fold change
Give bare numbers.

SEQUENCE DATA: RRIRSRPPRLPRPRPRPQMIPRP
VALUE: -0.292

SEQUENCE DATA: RRIRDRPPRLPRPRPRPPWNPRP
VALUE: -0.0258

SEQUENCE DATA: RRIRERPPRLPRPRPRPRIFPRP
VALUE: -0.0907

SEQUENCE DATA: RRIRYRPPRLPRPRPRPHGIPRP
VALUE: 0.0191

SEQUENCE DATA: RRIRIRPPRLPRPRPRPGDNPRP
VALUE: -0.317

State the recorded shrunken log2 fold change for every item in the following list.
1. RRIRTRPPRLPRPRPRPTIIPRP
2. RRIRIRPPRLPRPRPRPYVWPRP
3. RRIRKRPPRLPRPRPRPMLHPRP
4. RRIRHRPPRLPRPRPRPPSMPRP

OUT:
1: -0.786; 2: -1.33; 3: 0.164; 4: -0.343

State the recorded shrunken log2 fold change for every item in the following list.
1. RRIRDRPPRLPRPRPRPQDVPRP
2. RRIRNRPPRLPRPRPRPAMEPRP

OUT:
1. -0.254
2. 0.243

###

Test system: Escherichia coli TOP10
Assay: shrunken log2 fold change of peptide-encoding DNA abundance (4.5 h post-induction vs induction); higher = less antimicrobial activity (less host growth inhibition)
Conditions: time post-induction: 4.5 h; library: site-saturation at positions 5, 18, 19, 20
Hi there, I'd appreciate the recorded shrunken log2 fold change for every entry that follows.

State the recorded shrunken log2 fold change for every item in the following list.
1. RRIRERPPRLPRPRPRPVFRPRP
2. RRIRTRPPRLPRPRPRPGQKPRP
3. RRIRPRPPRLPRPRPRPGTVPRP
4. RRIRGRPPRLPRPRPRPKQNPRP
5. RRIRVRPPRLPRPRPRPRNGPRP
6. RRIRFRPPRLPRPRPRPVNRPRP
7. RRIRIRPPRLPRPRPRPDMVPRP
8. RRIRTRPPRLPRPRPRPDQQPRP

OUT:
1: -0.0125; 2: 0.0923; 3: -0.182; 4: 0.853; 5: 0.0197; 6: 0.188; 7: 0.0032; 8: -0.0173

State the recorded shrunken log2 fold change for every item in the following list.
1. RRIRSRPPRLPRPRPRPSPRPRP
2. RRIRTRPPRLPRPRPRPCAMPRP
3. RRIRDRPPRLPRPRPRPIMYPRP

OUT:
1: 0.217; 2: -0.111; 3: -0.0948

###

Tested on: Escherichia coli TOP10;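 note: peptides expressed intracellularly from a pBAD plasmid library in pooled LB shake-flask culture, induced with 0.3% L-arabinose, DNA abundance read by NGS, three biological replicates, DESeq2 with apeglm shrinkage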
Assay: shrunken log2 fold change of peptide-encoding DNA abundance (4.5 h post-induction vs induction); higher = less antimicrobial activity (less host growth inhibition)
Conditions: time post-induction: 4.5 h; library: site-saturation at positions 5, 18, 19, 20
Assign class by shrunken log2 fold change: not lower than -0.04 means 1.0; lower than -0.04 means 0.0.

SEQUENCE DATA: RRIRDRPPRLPRPRPRPYKMPRP
LABEL VALUE: 0.0
--
SEQUENCE DATA: RRIRCRPPRLPRPRPRPFSCPRP
LABEL VALUE: 1.0
--
SEQUENCE DATA: RRIRQRPPRLPRPRPRPNDQPRP
LABEL VALUE: 1.0

IN: hey, is shrunken log2 fold change for this one >= -0.04? `RRIRGRPPRLPRPRPRPTNGPRP`
OUT: 1.0

IN: hey, is shrunken log2 fold change for this one >= -0.04? `RRIRSRPPRLPRPRPRPAPLPRP`
OUT: 1.0

IN: hey, is shrunken log2 fold change for this one >= -0.04? `RRIRGRPPRLPRPRPRPQYTPRP`
OUT: 1.0

IN: hey, is shrunken log2 fold change for this one >= -0.04? `RRIRIRPPRLPRPRPRPPMFPRP`
OUT: 0.0

IN: hey, is shrunken log2 fold change for this one >= -0.04? `RRIRLRPPRLPRPRPRPSSLPRP`
OUT: 0.0
